- target-system: T1, mouse MAdCAM expressed on cells (mouse, UniProt Q61826 22-405)
- T1 construct: whole, on cells
- T1 sequence (looked up): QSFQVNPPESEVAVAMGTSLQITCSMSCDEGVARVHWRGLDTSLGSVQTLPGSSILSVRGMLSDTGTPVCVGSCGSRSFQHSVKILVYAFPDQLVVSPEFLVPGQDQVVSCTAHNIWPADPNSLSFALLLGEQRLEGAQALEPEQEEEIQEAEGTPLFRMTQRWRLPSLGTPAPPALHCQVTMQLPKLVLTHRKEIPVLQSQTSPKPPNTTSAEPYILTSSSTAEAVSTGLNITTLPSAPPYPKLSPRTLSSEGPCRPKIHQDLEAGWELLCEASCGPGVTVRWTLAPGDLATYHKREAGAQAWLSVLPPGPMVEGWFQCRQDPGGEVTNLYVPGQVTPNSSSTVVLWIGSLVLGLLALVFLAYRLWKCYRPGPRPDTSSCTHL
- assay-name: cell binding
quantity-measured: binding result

• MAdCAM Antibody Table 1 Clone 28 (scFv) scFv: QVQLVQSGAEVKKPGASVKVSCKASGYTFTDYFLHWVRQAPGQGLEWMGWMNPTSGNTGYAQKFQGRVTMTRDTSTSTVYMELSSLRSEDTAVYYCAREGEGSGFDYWGQGTLVTVSSGGGGSGGGGSGGGGSGGGGSDIQMTQSPSSLSASVGDRVTITCRASQGINSWLAWYQQKPGKAPKLLIYDASNLETGVPSRFSGSGSGTDFTLTISSLQPEDFATYYCQQSYSTPLTFGGGTKVEIK = no binding
• MAdCAM Antibody Table 1 Clone 26 (scFv) scFv: QVQLVQSGAEVKKPGASVKVSCKASGYTLTTWYMYWVRQAPGQGLEWMGWINPNRGATNYAQKFQGRVTMTRDTSTSTVYMELSSLRSEDTAVYYCAKGDLWGAMDVWGQGTTVTVSSGGGGSGGGGSGGGGSGGGGSDIQMTQSPSSLSASVGDRVTITCRASDNIGSWLAWYQQKPGKAPKLLIYAASSLQSGVPSRFSGSGSGTDFTLTISSLQPEDFATYYCQQGYSTPPTFGQGTKVEIK = no binding
• MAdCAM Antibody Table 1 Clone 42 (scFv) scFv: QVQLVQSGAEVKKPGSSVKVSCKASGGTLSRYGVSWVRQAPGQGLEWMGGIIPIFGTTNYAQKFQGRVTITADESTSTAYMELSSLRSEDTAVYYCARDRVYYDSSGYPTWYFDLWGRGTLVTVSSGGGGSGGGGSGGGGSGGGGSEIVMTQSPATLSVSPGERATLSCRASQSVSSSYLAWYQQKPGQAPRLLIYGASTRATGIPARFSGSGSGTEFTLTISSLQSEDFAVYYCQQYGSSPITFGQGTKVEIK = no binding
• MAdCAM Antibody Table 1 Clone 63 (scFv) scFv: EVQLLESGGGLVKPGGSLRLSCAASGFTFDDYAMHWVRQAPGKGLEWVASITSSSAFIDYAASVKGRFTISRDDSKNTLYLQMNSLKTEDTAVYYCARERVDWNSYFDLWGRGTLVTVSSGGGGSGGGGSGGGGSGGGGSEIVMTQSPATLSVSPGERATLSCRASQGISNSYLAWYQQKPGQAPRLLIYGASTRATGIPARFSGSGSGTEFTLTISSLQSEDFAVYYCQQYYTYPPTFGPGTKVDIK = binds
• MAdCAM Antibody Table 1 Clone 21 (scFv) scFv: EVQLLESGGGLVQPGGSLRLSCAASGFTFSNAWMSWVRQAPGKGLEWVSTIVGNGGATYYADSVKGRFTISRDNSKNTLYLQMNSLRAEDTAVYYCARDNPLRWQGMDVWGQGTLVTVSSGGGGSGGGGSGGGGSGGGGSDIQMTQSPSSLSASVGDRVTITCRASQDISNYLNWYQQKPGKAPKLLIYAASSLQSGVPSRFSGSGSGTDFTLTISSLQPEDFATYYCQQSYSIPPTFGPGTKVDIK = no binding

Fill in: binding result of MAdCAM Antibody Table 1 Clone 52 (scFv) scFv: EVQLLESGGGLVQPGGSLRLSCAASGFTFSNSDMNWVRQAPGKGLEWVAHIWNDGSQKYYADSVKGRFTISRDNSKNTLYLQMNSLRAEDTAVYYCARDRTDPGYSSAMDVWGQGTTVTVSSGGGGSGGGGSGGGGSGGGGSDIQMTQSPSSLSASVGDRVTITCRASQDIRNYLGWYQQKPGKAPKLLIYDASSLETGVPSRFSGSGSGTDFTLTISSLQPEDFATYYCQQATSLPLTFGGGTKVEIK is ___
no binding

Fill in: binding result of MAdCAM Antibody Table 1 Clone 49 (scFv) scFv: QVQLVQSGAEVKKPGASVKVSCKASGDTFTGYYIHWVRQAPGQGLEWMGWINPNSGGTNYAQKFQGRVTMTRDTSTSTVYMELSSLRSEDTAVYYCARSGLWLGSYYGMDVWGQGTLVTVSSGGGGSGGGGSGGGGSGGGGSDIQMTQSPSSLSASVGDRVTITCRASQTISIWLAWYQQKPGKAPKLLIYDASTLQSGVPSRFSGSGSGTDFTLTISSLQPEDFATYYCQQYSSYPLTFGQGTKVEIK is ___
no binding

Fill in: binding result of MAdCAM Antibody Table 1 Clone 5 (scFv) scFv: EVQLLESGGGLVQPGGSLRLSCAASGFTFSSYWMHWVRQAPGKGLEWVSSISPGGSNIDYADSVKGRFTISRDNSKNTLYLQMNSLRAEDTAVYYCAREVQLSHYDYWGQGTLVTVSSGGGGSGGGGSGGGGSGGGGSDIQMTQSPSSLSASVGDRVTITCRASQGISNSLAWYQQKPGKAPKLLIYGASSLQSGVPSRFSGSGSGTDFTLTISSLQPEDFATYYCQQANSFPFTFGQGTKVEIK is ___
binds

Fill in: binding result of MAdCAM Antibody Table 1 Clone 10 (scFv) scFv: QVQLVQSGAEVKKPGASVKVSCKASGYTLTTWYMYWVRQAPGQGLEWMGWINPNRGATNYAQKFQGRVTMTRDTSTSTVYMELSSLRSEDTAVYYCAKGDLWGAMDVWGQGTLVTVSSGGGGSGGGGSGGGGSGGGGSDIQMTQSPSSLSASVGDRVTITCRASDNIGSWLAWYQQKPGKAPKLLIYAASSLQSGVPSRFSGSGSGTDFTLTISSLQPEDFATYYCQQGYSTPPTFGQGTKVEIK is ___
no binding

Fill in: binding result of MAdCAM Antibody Table 1 Clone 13 (scFv) scFv: EVQLLESGGGLVQPGGSLRLSCAASGFTFDDYAMHWVRQAPGKGLEWVSYIDASGTTIYYADSVKGRFTISRDNSKNTLYLQMNSLRAEDTAVYYCAKDQAAAGYWYFDLWGRGTLVTVSSGGGGSGGGGSGGGGSGGGGSDIQMTQSPSSLSASVGDRVTITCQASQDISNYLNWYQQKPGKAPKLLIYKASTLESGVPSRFSGSGSGTDFTLTISSLQPEDFATYYCQQSYSTPITFGQGTRLEIK is ___
no binding
